# Tested On: unphosphorylated-BTK kinase domain (UP-BTK), GST-tagged human BTK (389-659aa) (Homo sapiens (Human))
# Protocol Description: BTK kinase Lanthascreen binding assay
# Condition Context: pIC50 = negative log of the IC50 in molar; 60 minutes incubation, 50 nM Tracer 236
Result Type: BTK_I_binding pIC50

Cc1cc(Oc2ccccc2)ccc1N1C(=O)Nc2c(C(=O)NC3CCCN(C#N)CC3)sc3nccc1c23 (stereo not shown): 6.6
C=CC(=O)N1C[C@H](NC(=O)c2sc3nccc4c3c2NC(=O)N4c2ccc(Oc3ccccc3)cc2C)C[C@H](OC)C1: 7.4
C=CC(=O)N1CCC[C@@H](NC(=O)c2sc3nccc4c3c2NC(=O)N4c2ccc(OC)cc2)C1: 6.6
Cc1cc(Oc2ccccc2)ccc1N1C(=O)Nc2c(C(=O)N[C@@H]3CCCN(C(=O)CCN)C3)sc3nccc1c23: 7.2
C/C=C(\F)C(=O)N1CCC[C@@H](NC(=O)c2sc3nccc4c3c2NC(=O)N4c2ccc(Oc3ccccc3)cc2C)C1: 6.5
C=CC(=O)N1CC[C@@H](NC(=O)c2sc3nccc4c3c2NC(=O)N4c2c(C)cc(Oc3ccccc3)cc2C)C1: 6.6
Cc1c(N2C(=O)Nc3c(C(=O)N[C@H]4CCCOC4)sc4nccc2c34)ccc(Oc2ccccc2)c1F: 7.3

* * *

# Tested On: unphosphorylated-BTK kinase domain (UP-BTK), GST-tagged human BTK (389-659aa) (Homo sapiens (Human), UniProt Q06187)
# Sequence (Q06187 389-659): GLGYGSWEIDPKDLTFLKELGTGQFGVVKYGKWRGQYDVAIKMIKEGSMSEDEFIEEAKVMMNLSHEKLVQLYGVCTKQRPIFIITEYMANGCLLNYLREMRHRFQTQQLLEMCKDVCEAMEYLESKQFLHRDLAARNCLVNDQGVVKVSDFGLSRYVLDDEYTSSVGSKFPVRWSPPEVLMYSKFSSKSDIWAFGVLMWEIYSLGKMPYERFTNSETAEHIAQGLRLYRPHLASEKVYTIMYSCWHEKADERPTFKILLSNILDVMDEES
# Protocol Description: BTK kinase Lanthascreen binding assay
# Condition Context: Lanthascreen tracer competition, 60 minutes incubation; pIC50 = negative log of the IC50 in molar
Result Type: BTK_I_binding pIC50

O=C(N[C@@H]1CCCNC1)c1sc2nccc3c2c1NC(=O)N3c1cccc(-c2cccc(F)c2F)c1 [Example 706]: 7.7
C=CC(=O)N1CCC[C@@H](NC(=O)c2sc3nccc4c3c2NC(=O)N4c2cnc(OC3CCC3)cc2C)C1 [Example 672]: 7.6
C=CC(=O)N1CCC[C@@H](NC(=O)c2sc3nccc4c3c2NC(=O)N4c2ccc(Oc3cccnc3C)cc2)C1 [Example 771]: 7.4
Cc1cc(Oc2cccc(COc3ccccc3C#N)c2)ccc1N1C(=O)Nc2c(C(=O)NC3CCN(C)CC3)sc3nccc1c23 [Example 855]: 7.5
C=CC(=O)N1CCC(Nc2sc3nccc4c3c2NC(=O)N4c2ccc(Oc3ccccc3)cc2C)CC1 [Example 606]: 6.2

* * *

# Tested On: unphosphorylated-BTK kinase domain (UP-BTK), GST-tagged human BTK (389-659aa) (Homo sapiens (Human), UniProt Q06187)
# Protocol Description: BTK kinase Lanthascreen binding assay
# Condition Context: Lanthascreen tracer competition, 60 minutes incubation; pIC50 = negative log of the IC50 in molar
Result Type: BTK_I_binding pIC50

O=C(N[C@@H]1CCCNC1)c1sc2nccc3c2c1NC(=O)N3c1ccc(Oc2ccccc2)cc1: 7.4
COc1ccccc1Oc1ccc(N2C(=O)Nc3c(C(=O)NC4CCN(C#N)CC4)sc4nccc2c34)c(C)c1: 7.0
CNCC(=O)N1CC[C@@H](NC(=O)c2sc3nccc4c3c2NC(=O)N4c2cccc(-c3ccccc3)c2)C1: 6.4
CCC(=O)N1CCC(C(=O)Nc2sc3nccc4c3c2NC(=O)N4c2ccc(Oc3ccccc3)cc2C)CC1: 6.0
C=CC(=O)N1CCC[C@@H](NC(=O)c2sc3nccc4c3c2NC(=O)N4c2ccc(Oc3ccc(C)cn3)cc2)C1: 6.9
CN[C@@H](C)C(=O)N1CCC[C@@H](NC(=O)c2sc3nccc4c3c2NC(=O)N4c2ccc(Oc3ccccc3)cc2C)C1: 7.5
CN[C@H](C)C(=O)N1CCC[C@@H](NC(=O)c2sc3nccc4c3c2NC(=O)N4c2ccc(Oc3ccccc3)cc2C)C1: 7.6
CC(C)Cc1cccc(N2C(=O)Nc3c(C(=O)N[C@@H]4CCCNC4)sc4nccc2c34)c1: 6.2
Cc1cc(C(=O)Nc2cc(C(F)(F)F)ccn2)ccc1N1C(=O)Nc2c(C(=O)N[C@H]3CCCN(C(=O)/C(C#N)=C/C4CC4)C3)sc3nccc1c23: 7.0
C=CC(=O)N1CCC[C@@H](NC(=O)c2sc3nccc4c3c2NC(=O)N4c2ccc(Oc3ccccc3)nc2C)C1: 8.2
COCCC(=O)N1CCC[C@@H](NC(=O)c2sc3nccc4c3c2NC(=O)N4c2ccc(Oc3ccccc3)cc2)C1: 7.2
C=CC(=O)N1CCC[C@@H](NC(=O)c2sc3nccc4c3c2NC(=O)N4c2cc(-c3ccccc3)cnn2)C1: 6.7

* * *

# Tested On: unphosphorylated-BTK kinase domain (UP-BTK), GST-tagged human BTK (389-659aa) (Homo sapiens (Human))
# Protocol Description: BTK kinase Lanthascreen binding assay
# Condition Context: Lanthascreen tracer competition, 60 minutes incubation; pIC50 = negative log of the IC50 in molar
Result Type: BTK_I_binding pIC50

C=CC(=O)N1CCC[C@@H](NC(=O)c2sc3nccc4c3c2NC(=O)N4c2ccc(Oc3ccc(C)nc3)cc2C)C1: 7.1
N#C/C(=C\C1CC1)C(=O)N1CCCC(NC(=O)c2sc3nccc4c3c2NC(=O)N4c2cccc(Oc3ccccc3)c2)C1 (centres unmarked): 7.5
C=CC(=O)N1CC[C@@H](NC(=O)c2sc3nccc4c3c2NC(=O)N4c2cccc(C(C)C)c2)C1: 6.7
O=C(CCCC(=O)NCCCOCCOCCOCCCNC(=O)CCCC[C@H]1SC[C@H]2NC(=O)N[C@H]21)NC/C=C/C(=O)N1CCCC(NC(=O)c2sc3nccc4c3c2NC(=O)N4c2ccc(Oc3ccccc3)cn2)C1 (some centres unmarked): 6.3
C=CC(=O)N1CCC[C@@H](NC(=O)c2sc3nccc4c3c2NC(=O)N4c2cccc(OC3CCC3)c2)C1: 6.5
C=CC(=O)N1CCC[C@@H](NC(=O)c2sc3nccc4c3c2NC(=O)N4c2ccc(OC3CCCC3)cc2C)C1: 7.9
C=CC(=O)N1CCC[C@H](NC(=O)c2sc3nccc4c3c2NC(=O)N4c2ccc(Oc3ccccc3)cn2)C1: 6.4
Cc1c(Oc2ccccc2)cccc1N1C(=O)Nc2c(C(=O)N[C@@H]3CCCN(C(=O)/C(C#N)=C/C4CC4)C3)sc3nccc1c23: 6.8
C=CC(=O)N1CCC[C@@H](NC(=O)c2sc3nccc4c3c2NC(=O)N4c2cc(OC(C)C)ccc2C)C1: 5.6
CCC(=O)N1CCC[C@@H](NC(=O)c2sc3nccc4c3c2NC(=O)N4c2ccc(Oc3ccccc3)cc2C)C1: 7.3
Cc1cc(Oc2ccccc2)ccc1N1C(=O)Nc2c(C(=O)NC3CCCNC3)sc3nccc1c23 (centres unmarked): 7.0
C=CC(=O)N1CCC[C@@H](NC(=O)c2sc3nccc4c3c2NC(=O)N4c2ccc(OCCOC(C)C)cc2C)C1: 6.9
C=CC(=O)N1CCC[C@@H](NC(=O)c2sc3nccc4c3c2NC(=O)N4c2ccc(OC)cc2C)C1: 7.1
CC(=O)N1CCC[C@H]1/C=C(\C#N)C(=O)N1CCC[C@@H](NC(=O)c2sc3nccc4c3c2NC(=O)N4c2ccc(Oc3ccccc3)cc2C)C1: 7.7
CC(=O)N1CCC[C@@H]1/C=C(\C#N)C(=O)N1CCC[C@@H](NC(=O)c2sc3nccc4c3c2NC(=O)N4c2ccc(Oc3ccccc3)cc2C)C1: 7.7
Cc1nc(Oc2ccccc2)ccc1N1C(=O)Nc2c(C(=O)N[C@@H]3CCCNC3)sc3nccc1c23: 6.6
CCC(=O)N1CCC[C@H](NC(=O)c2sc3nccc4c3c2NC(=O)N4c2ccc(Oc3ccccc3)cc2C)C1: 7.0
C=CC(=O)N1CCC[C@@H](NC(=O)c2sc3nccc4c3c2NC(=O)N4c2ccc(OC(C)C)nc2C)C1 (single isomer, unassigned) [Example 753]: 6.2
Cc1cc(Oc2ccccc2)ccc1N1C(=O)Nc2c(C(=O)NC3CCCN(C(=O)/C(C#N)=C/C(C)(C)C)C3)sc3nccc1c23 (centres unmarked): 6.8
C=CC(=O)N1CCC(C(=O)Nc2sc3nccc4c3c2NC(=O)N4c2ccc(Oc3ccccc3)cc2C)CC1: 5.9
C=CC(=O)N1CC[C@@H](NC(=O)c2sc3nccc4c3c2NC(=O)N4c2ccc(Oc3cccnn3)cc2)C1: 6.1
C=CC(=O)N1CCC[C@@H](NC(=O)c2sc3nccc4c3c2NC(=O)N4c2ccc(OC3CCC3)nc2C)C1 (single isomer, unassigned) [Example 682]: 7.3
C=CC(=O)N1CCC[C@@H](NC(=O)c2sc3nccc4c3c2NC(=O)N4c2ccc(Oc3cccnn3)cc2)C1: 6.6

* * *

# Tested On: unphosphorylated-BTK kinase domain (UP-BTK), GST-tagged human BTK (389-659aa) (Homo sapiens (Human))
# Protocol Description: BTK kinase Lanthascreen binding assay
# Condition Context: unphosphorylated-BTK kinase domain, 50 nM Tracer 236, 60 minutes; pIC50 = negative log of the IC50 in molar
# Procedure: BTK Kinase Lanthascreen Binding Assay: A BTK kinase lanthascreen binding assay monitors compound binding to unphosphorylated-BTK kinase domain (UP-BTK), by competing with a fluorescent labeled tracer. […] Data were analyzed using Xlfit™ version 5.3 from ID Business Solutions (Guildford), Microsoft Excel add-in. pIC50 refers to the negative log of the IC50 in molar
Result Type: BTK_I_binding pIC50

C=CC(=O)N1CC[C@@H](NC(=O)c2sc3nccc4c3c2NC(=O)N4c2ccccc2)C1 [Example 337]: 5.4
C=CC(=O)N1CCC[C@@H](NC(=O)c2sc3nccc4c3c2NC(=O)N4c2ccc(Cc3ccccc3)cc2)C1 [Example 422]: 7.5
C=CC(=O)N1CC[C@@H](NC(=O)c2sc3nccc4c3c2NC(=O)N4c2ccc(C)cc2C)C1 [Example 304]: 6.0
CO[C@@H]1CNC[C@H](NC(=O)c2sc3nccc4c3c2NC(=O)N4c2ccc(Oc3ccccc3)cc2C)C1 (relative stereo) [Example 468]: 5.9
C=CS(=O)(=O)N1CCC[C@@H](NC(=O)c2sc3nccc4c3c2NC(=O)N4c2ccc(Oc3ccccc3)cc2C)C1 [Example 372]: 7.6
Cc1cc(Oc2ccccc2)ccc1N1C(=O)Nc2c(C(=O)N[C@@H]3CCN(C(=O)/C=C/CN)C3)sc3nccc1c23 [Example 382]: 7.3
C=CC(=O)N1CCC[C@@H](NC(=O)c2sc3nccc4c3c2NC(=O)N4c2ccc(OC3CCC3)cc2)C1 [Example 457]: 7.6
